Assay summary: self-splicing fitness, log relative to wild type (ln ratio); higher = more splicing; Tetrahymena group I intron in knt gene, E. coli kanamycin selection, DiMSum; sequences stand for … in CUCUCU…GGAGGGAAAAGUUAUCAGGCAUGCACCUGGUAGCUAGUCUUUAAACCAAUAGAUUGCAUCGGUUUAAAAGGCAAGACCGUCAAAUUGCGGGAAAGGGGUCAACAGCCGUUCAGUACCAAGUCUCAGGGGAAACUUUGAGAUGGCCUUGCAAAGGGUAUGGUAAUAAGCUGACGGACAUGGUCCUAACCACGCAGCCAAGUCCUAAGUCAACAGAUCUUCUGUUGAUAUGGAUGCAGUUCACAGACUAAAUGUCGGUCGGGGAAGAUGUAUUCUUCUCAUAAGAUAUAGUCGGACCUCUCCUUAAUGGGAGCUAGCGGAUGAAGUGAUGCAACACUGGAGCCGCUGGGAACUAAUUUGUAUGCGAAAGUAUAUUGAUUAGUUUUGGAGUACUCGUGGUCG;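 note: selection with 25 µg/mL kanamycin versus none on LB agar overnight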
Experimental conditions: 37 °C
Quantity: self-splicing fitness (ln)

• GAGCAGCAAUAUUACGCUAG = -1.53
• GUUCAGCAAUAUUACGUUUU = -0.216
• UAUCAGCAAUAUUACGUACA = -0.199
• GAGCAGCAAUAUUACGCCAA = -1.43
• CGUCAGCAAUAUUACGCCCC = -1.34

Now let's try a different one.
Suppose we examine the sequence `AAACAGCAAUAUUACGGAAU` ; what self-splicing fitness (ln) value has been reported?
-2.4
